PROCEDURE SUMMARY: Binding affinity towards N-methyl-D-aspartate (NMDA) receptor in rat brain using [3H]-25-6981 as radioligand
Format: tissue-based
PARAMETER: Ki (nM)
Kindly answer with a numeric value in nM, unit omitted.

See these solved cases before continuing.
>  <STRUCTURE>
Nc1cc(N2CCc3ccccc3C2)c2ccccc2n1

>  <Ki, nM>
19

$$$$
>  <STRUCTURE>
Cc1cc(N2CCc3ccccc3C2)cc(NC(=O)CO)n1

>  <Ki, nM>
15

$$$$
>  <STRUCTURE>
OCCNc1cc(N2CCc3ccccc3C2)c2ccccc2n1

>  <Ki, nM>
22

$$$$

Q. For the compound `Cc1cc(N2CCc3ccccc3C2)ccn1` , report Ki.
A. 8

Q. Recall and state the measured Ki for `Nc1cc(N2CCc3ccccc3C2)ccn1` .
A. 2

Q. For the compound `CCOC(=O)C(=O)Nc1cc(N2CCc3ccccc3C2)cc(C)n1` , report Ki.
A. 8

Q. Return value of Ki for input `Cc1cc(N2CCc3ccccc3C2)cc(NCCO)n1` , no commentary.
A. 2

Q. Input `Cc1cc(N2CCc3ccccc3C2)cc(N)n1` , output reported Ki.
A. 4
